Values compiled from a melting point compilation (Tetko et al.; mined from patent text by program, amines drawn as free bases though some values may be those of a salt).

Listing: melting point of selected compounds
Measurement type: melting point

>>> assay_value("CC(=O)N1CCC(O)(C(=O)c2ccc(F)cc2)CC1")
"146 to 149 °C"
>>> assay_value("CCC(O)CP(=O)(O)CCCN (stereo not given)")
"184 to 185 °C"
>>> assay_value("CC(=O)N1N=C(c2ccc(N)cc2)c2cc(Br)ccc2CC1C (stereo not given)")
"205 to 208 °C"
>>> assay_value("Cc1nn(-c2c(Cl)cc(C(F)(F)F)cc2Cl)nc1COS(C)(=O)=O")
"126 to 128 °C"
>>> assay_value("CN(C#N)C(=O)CCCC(=O)N(C)C#N")
"51.4 to 52.8 °C"
>>> assay_value("Cc1ccc(S(=O)(=O)Cc2c(-c3cc([N+](=O)[O-])cc([N+](=O)[O-])c3)nn(C)c2O)cc1")
"192 to 194 °C"
>>> assay_value("CCOC(=O)N1CCN(CCNc2ncnc3c2sc2nc(N4CCCC4)c4c(c23)CC(C)(C)CC4)CC1")
"76.2 to 77.8 °C"
>>> assay_value("O=C(NCC1Cc2ccccc2C1)OCc1ccccc1")
"87 to 89 °C"
>>> assay_value("O=C(NCCO)/C(=C/c1ccc(OCC(F)(F)F)cc1)NC(=O)c1ccc(OCCC2CC2)cc1")
"173 to 175 °C"
>>> assay_value("O=C(Nc1cccc(S(=O)(=O)NCCO)c1)c1cnn2c(C(F)F)cc(-c3ccc(C(F)(F)F)cc3)nc12")
"231 °C"

###

Measurement type: melting point (°C)

>>> assay_value("CC(Oc1ccc2nc(NC(=O)NCCN3CCOCC3)sc2c1)c1c(F)ccc(Cl)c1Cl (stereo not given)")
200
>>> assay_value("CNC(=S)N1CCc2[nH]cnc2C1")
228
>>> assay_value("N#Cc1ccc(N2CCN(Cc3cnc4c(c3)NC(=O)C3CCCCN43)CC2)cc1 (stereo not given)")
212
>>> assay_value("COc1ccccc1-c1nc(N)ncc1-c1ccc(=O)n(C)n1")
225

###

Measurement type: melting point

>>> assay_value("Cn1c(=O)c2c(nc3n(Cc4ccccc4)c(=O)cc(O)n23)n(C)c1=O")
"206 to 209 °C"
>>> assay_value("CN(CCc1ccc(N)cc1)C1Cc2ccc(N)cc2C1 (stereo unspecified)")
"112 to 114 °C"
>>> assay_value("COc1ccc(OCC(O)CNCCNc2c(C)c(=O)n(C)c(=O)n2C)cc1OC (stereo unspecified)")
"103 to 104 °C"
>>> assay_value("Cc1ccc(Cl)c(-c2nn(C(C)(C)C(=O)N(C)C)cc2C)c1")
"106 to 108 °C"
>>> assay_value("CCCOc1cc2ccccc2c2c(=O)c(-c3ccoc3)cn(C)c12")
"165 to 167 °C"
>>> assay_value("CCOC(=O)N1CCC(NC(=O)c2ccc(Cl)c(Cl)c2)C12CCCCC2 (stereo unspecified)")
"153 to 155 °C"
>>> assay_value("COC(=O)CCCCc1ccc(CCNC(C)=O)cc1")
"57 to 59 °C"
>>> assay_value("CNC(=O)N/N=C1/C(=O)N(CCN(C(C)C)C(C)C)c2ccc(C)cc21")
"158 °C"
>>> assay_value("O=c1c2c(Cc3cccc([N+](=O)[O-])c3)n[nH]c2c2cccnc2n1-c1ccccc1")
"> 320 °C"
>>> assay_value("N#CC(=NOCCn1cncn1)C(N)=O")
"137 °C"
>>> assay_value("COC(=O)c1ccc(-c2noc(C)n2)s1")
"134 to 136 °C"
>>> assay_value("CON=CCN1C(=O)C(NC(=O)c2cc3ccccc3[nH]2)N=C(c2ccccc2)c2ccccc21 (racemic)")
"169 to 174 °C"
>>> assay_value("CC1=C(C(=O)O)N2C(=O)C(NC(=O)Cc3ccc(CCl)cc3)C2SC1 (stereo unspecified)")
"145 to 146 °C"
>>> assay_value("O=C(Cl)c1ccc2ccccc2c1O")
"87 to 88 °C"
>>> assay_value("CSc1ccc(/C=C(\\NC(=O)c2ccc(OCC(C)C)cc2)C(=O)NCCO)cc1")
"161 to 163 °C"
>>> assay_value("Cc1cccc(C)c1NC(=O)CN1CCN(C=O)CC1")
"139 to 140 °C"
>>> assay_value("Nc1ccc(C23CC2C(=O)N(CC2CCCCC2)C3=O)cc1 (stereo unspecified)")
"125 to 126 °C"
>>> assay_value("c1ccc(NCc2nccc(-c3ccc(-c4ccc(N(c5ccccc5)c5ccccc5)cc4)cc3)n2)cc1")
"200 to 201 °C"
>>> assay_value("Nc1cc(-c2ccccn2)cc2nc(-c3ccccc3)nn12")
"278 to 280 °C"
>>> assay_value("O=c1[nH]cnc2oc(-c3ccccc3)cc12")
"320 to 322 °C"
>>> assay_value("CSCCC(NC=O)C(N)=O (racemic)")
"121 to 122 °C"

###

Measured melting point accompanies every entry in the list below.
Measurement type: melting point

>>> assay_value("COc1ccc(C(C)=Cc2ccncc2)c2c1OC1(CCCC1)C2")
"85 to 87 °C"
>>> assay_value("CSc1cc2n(c1C(=O)c1ccccc1)CCC2C(=O)O (centres undefined)")
"191 to 192 °C"
>>> assay_value("CCOC(=O)c1cc(SC#N)c(-c2ccc(Cl)cc2)[nH]1")
"138 to 141 °C"
>>> assay_value("CCc1sc(-c2cc[nH]n2)c2c1C(=O)CC(C)(C)C2")
"152 to 155 °C"
>>> assay_value("Nc1ncc(-c2noc(-c3cnn4c(C(F)(F)F)cc(-c5ccc(F)c(F)c5)nc34)n2)cn1")
"268 °C"
>>> assay_value("O=c1ncc(I)cn1COCc1ccc(Cl)cc1")
"168 °C"
>>> assay_value("COc1cc2c(-c3ccnc(Cl)c3)c(CO)c(CO)cc2cc1OC1CCCC1")
"200 to 201 °C"
>>> assay_value("CCCCOC(C(=O)Oc1ccc(C(=O)O)cc1)c1ccc2c(c1)C(C)(C)CCC2(C)C (racemic)")
"129 to 130 °C"
>>> assay_value("COC(=O)c1[nH]c(SCc2ccccn2)nc1CCNC(=O)[C@H](Cc1ccccc1)NC(=O)N(Cc1ccccc1)NC(=O)C(C)(C)C")
"171 to 172 °C"

###

Below is a list of entries, each paired with its recorded melting point value.
Measurement type: melting point

>>> assay_value("CNC(=O)N(c1ccc(OC(F)(F)F)cc1)c1nc(OCC(F)(F)F)cc(OCC(F)(F)F)n1")
"123 to 125 °C"
>>> assay_value("COc1cc(N=Nc2ccc3[nH]nnc3c2)c(O)c2ccccc12")
"254 °C"
>>> assay_value("N#Cc1cc(C(=O)O)n(/C=C/c2ccccc2)c1")
"166 to 168 °C"
>>> assay_value("COc1ccc(C(=O)Nc2cccnc2)c2c3cc(Cl)ccc3n(Cc3ccc(F)cc3)c12")
"224 to 228 °C"
>>> assay_value("COc1ccc2c(c1)C(=O)[C@@H](O)[C@](C#Cc1ccccc1)(c1ccccc1)O2 (relative stereo)")
"135 to 138 °C"
>>> assay_value("COCCOC1CC(c2ccccc2)Oc2c1ccc1c2nc(C)n1C (stereo not given)")
"148 to 149 °C"
>>> assay_value("C[C@@H](NC(=O)c1cnn(-c2ccc(Cl)cc2)c1N)[C@](O)(Cn1cncn1)c1ccc(F)cc1F")
"181 to 182 °C"
>>> assay_value("O=C(O)Cc1ccc2c(c1)C(=O)c1ccc(Cl)cc1CS2")
"245 to 247 °C"
>>> assay_value("COc1cc(CCBr)cc2c1OCO2")
"78 to 79 °C"
>>> assay_value("COC(=O)c1ccc(Cn2c(=O)c(C)c3sc(C(=O)NCc4ccc(F)cc4)cn3c2=O)cc1")
"> 215 °C"
>>> assay_value("FC(F)C(Cl)=NC(c1ccccc1)(c1ccccc1)c1ccccc1")
"154 to 156 °C"
>>> assay_value("Fc1cccc(C(c2ccc3nccnc3c2)n2ccnc2)c1 (stereo not given)")
"110 °C"
>>> assay_value("Oc1ccc2c(c1)CCCC(c1ccccc1)=C2c1ccc(OCCCCCCSCCCC(F)(F)C(F)(F)F)cc1")
"166 °C"
>>> assay_value("ONCc1ccc2c(c1)Cc1ccccc1-2")
"150 to 152 °C"
>>> assay_value("CS(=O)(=O)c1ccc(-c2cnn(-c3ccc(F)cc3)c(=O)c2C#Cc2ccccc2)cc1")
"203 to 204 °C"
>>> assay_value("CCCc1c(OCCCOc2ccc(-c3coc(C)n3)c(OC)c2CCC)ccc2c1OC(C(=O)O)CC2 (stereo not given)")
"111 to 115 °C"
>>> assay_value("CCS(=O)(=O)Nc1cc(-n2nc3n(c2=O)CCCC3)c(F)cc1C(N)=S")
"220 °C"
>>> assay_value("Cc1ccc(-c2nnc(N(CCCCOCC(=O)O)C(C)C)nc2-c2ccc(C)cc2)cc1")
"119 to 121 °C"
>>> assay_value("CC(C)(C)OC(=O)NC1(CCOS(C)(=O)=O)CC1")
"88 to 89 °C"
>>> assay_value("O=C(O)CC1CCCc2c1n(Cc1ccc(Cl)cc1)c1c(F)cc(F)cc21 (stereo not given)")
"130 to 131 °C"
